Experiment: binders of probe aFST on microarray, primary screen, stem cell growth factor project, biochemical, small-molecule microarray, fluorescence 635/667 (AID 1086);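 note: score merges 667 nm fluorescence with signal-to-noise of each printed compound spot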
Conditions: higher = more signal
The threshold is inclusive: composite z-score of exactly 0.2 counts as label 1; values below receive label 0.

Examples from the recorded data:
{"compound": "COCCNC(=O)OCC1CCCC2(CC(OC(=O)NCCc3ccc(F)cc3)CC(CCC(=O)N[C@@H](C)C(=O)OC)O2)O1 (stereo partly specified)", "class_assignment": "label 1"}
{"compound": "CN(C)CCCNC(=O)[C@@H]1c2ccccc2C(=O)N(Cc2ccccc2)[C@H]1c1ccc(CO)cc1", "class_assignment": "label 0"}
{"compound": "NC(=O)NCC#Cc1ccc2c(c1)[C@]1(C(=O)N2)[C@H](c2ccc(O)cc2)N2[C@H](c3ccccc3)[C@H](c3ccccc3)OC(=O)[C@H]2[C@@H]1C(=O)N1CCCCCCC1", "class_assignment": "label 1"}

# input Dear colleague, could you confirm whether CCCNC(=O)OC[C@H]1O[C@H](CCON=CC[C@@H]2C=C[C@H](OC(C)=O)[C@@H](COC(C)=O)O2)C=C[C@@H]1Oc1ccc(OC)cc1 has composite z-score at or above 0.2?
# output label 0

# input Follow-up entry: COCCCNC(=O)[C@@]1(Sc2ccc(C)cc2)CC(=O)N(Cc2ccccc2)[C@@H]1c1ccc(CO)cc1I
# output label 1

# input Try the compound Cc1ccc(S[C@]2(C(=O)NCC(F)(F)F)CC(=O)N(Cc3ccccc3Cl)[C@@H]2c2ccc(CO)cc2I)cc1
# output label 0

---

Assay: basal HepG2 mitochondrial membrane potential changes, profiling panel, cell-based, JC-1 fluorescence, 24 h, 100 nL compound (AID 1167); note: test concentration not given here
Conditions: higher = more signal
endpoint: z-score

{"molecule": "CC(CCC(=O)OC[C@H]1O[C@H](C#Cc2ccccc2)C=C[C@@H]1Oc1ccc(C)cc1)=NOC[C@@H](O)[C@H]1O[C@@H]2OC(C)(C)O[C@@H]2[C@H]1O", "z-score": -0.791}
{"molecule": "COc1ccccc1CN1C(=O)c2ccccc2[C@@H](C(=O)NCC(F)(F)F)[C@@H]1c1ccc(CO)cc1", "z-score": 1.62}
{"molecule": "C=CC[C@@H]1C=C[C@H](ON=C2c3cc(OC)ccc3O[C@H](c3cccc(OC)c3)[C@H]2O)[C@@H](CO)O1", "z-score": -1.45}
{"molecule": "CCOC(=O)CCN1C(=O)[C@H]2[C@H]3[C@H](O)[C@H](O)CC(=NOC[C@@H](O)COCc4ccco4)[C@H]3CC[C@H]2C1=O", "z-score": -0.803}
{"molecule": "CC(CCN1CCCCc2nc(C)c(C)cc21)=NOC(C)CN1CCCc2nc(C)c(C)cc21 (configuration not stated)", "z-score": 0.346}
{"molecule": "CCOC(=O)CCN1C(=O)[C@H]2[C@H]3[C@H](O)[C@H](O)CC(=NOCc4ccccc4)[C@@H]3CC[C@H]2C1=O", "z-score": -0.761}

Required: z-score, one value per molecule below.
1. O=C(NN=C1C[C@@H](O)[C@@H](O)[C@@H]2[C@@H]3C(=O)N(c4ccc(F)cc4F)C(=O)[C@@H]3CC[C@@H]12)OCc1ccccc1
2. O=C1c2ccccc2[C@@]2(Cc3ccccc3N(C3CC3)C2=O)[C@H](c2ccc(CO)cc2)N1Cc1ccccc1C(F)(F)F
3. C[C@@H](c1ccccc1)N1C(=O)[C@H]2[C@H]3[C@H](O)[C@H](O)CC(=NOC[C@@H](O)COCc4ccco4)[C@@H]3CC[C@H]2C1=O

# output
1. -0.121
2. 1.13
3. -0.794

Can you give me z-score for all of these, one by one?
1. C#CCCCON=C1C[C@@H](O)[C@@H](O)[C@@H]2[C@@H]3C(=O)N(CCC(=O)OCC)C(=O)[C@@H]3CC[C@@H]12
2. CC[C@@H](c1ccccc1)n1c(=O)n2n(c1=O)[C@H]1[C@H](O)[C@@H]3O[C@@H]3C(=NOCC=C(C)CCC=C(C)C)[C@H]1CC2
3. CC(C)=CCCC(C)=CCON=C1C[C@@H](O)[C@@H](O)[C@@H]2[C@@H]3C(=O)N(C[C@@H]4CCCO4)C(=O)[C@@H]3CC[C@@H]12
4. COc1ccc(O[C@H]2C=C[C@@H](c3ccccc3)O[C@@H]2COC(=O)CCC(C)=NOC(C)CN2CCCCc3nc(C)c(C)cc32)cc1 (some centres not stated)

# output
[-1.18, -2.4, -1.31, 0.775]

// batch mode: one z-score value per listed entry
1. CN1C(=O)C2C=CC(C(O)C(c3ccccc3)c3ccccc3)N(NC(=O)OC(C)(C)C)C2C1=O (configuration not stated)
2. Cn1cccc1C(O)C1C=CC2C(=O)NC(=O)C2N1Nc1ccccn1 (configuration not stated)
3. CCc1cc2c(nc1CC)CCN(CCC(C)=NOC[C@@H](O)COCc1ccco1)C2

# output
1. -1.46
2. -4.01
3. 1.44

For every item below, please supply its z-score.
1. COCCCNC(=O)[C@]1(CCC(=O)OC(C)(C)C)N=C(c2ccc(OCCCO)cc2)O[C@@H]1c1ccccc1N=[N+]=[N-]
2. CC(C)(C)N1C(=O)[C@H]2[C@H]3[C@H](O)[C@H](O)CC(=NO[C@@H]4O[C@H](CO)[C@@H](O)[C@H](O)[C@H]4O)[C@@H]3CC[C@H]2C1=O
3. O=C1[C@H]2[C@H]3[C@H](O)[C@H](O)CC(=NOCc4ccccc4)[C@H]3CC[C@H]2C(=O)N1C[C@@H]1CCCO1
4. CCOC(=O)C[C@H]1[C@H](OC(=O)c2ccc(C(=O)c3ccccc3)cc2)[C@@H](NC(=O)c2ccc(-c3ccccc3)cc2)c2cc(OCCCO)ccc2N1C(=O)c1ccc2ccccc2n1
5. CN(C)CCCNC(=O)[C@@H]1c2ccccc2C(=O)N(Cc2ccccc2)[C@H]1c1ccc(CO)cc1

# output
1: 1.75; 2: -2.11; 3: -0.528; 4: 1.92; 5: 1.89

# input Any idea what its z-score is? The molecule is CCOC(=O)[C@H](Cc1ccccc1)NC(=O)CCC1CC(OC(=O)NCc2ccc3c(c2)OCO3)CC2(CCCC(COC(=O)NCc3cccc(C(F)(F)F)c3)O2)O1 (some centres not stated)
# output 2.06
